# credit: the Deep4Chem optical property database

Experiment: photoluminescence quantum yield (fraction); solvent given as SMILES
Settings: in CCO
# binning rule on photoluminescence quantum yield: low group = under 0.03, middle group = from 0.03 up to 0.2, high group = 0.2 and over

Returns: class label. Input: "CSc1sc(C(N)=O)c2nnn(C)c(=O)c12" high group

Returns: class label. Input: "N#Cc1ncc(-c2c3ccccc3c(-c3cnc(C#N)nc3)c3ccccc23)cn1" middle group

Returns: class label. Input: "CC(=O)c1nc(-c2ccc(N(c3ccccc3)c3ccccc3)cc2)oc1C" high group

Returns: class label. Input: "CC(C)(C)c1ccc(-c2cc3c4c(c2)CCc2cc(-c5ccc(C(C)(C)C)cc5)cc(c2-4)CC3)cc1" high group

Returns: class label. Input: "Cc1cc(=O)oc2cc3cc(-c4cn(Cc5ccccc5)nn4)ccc3cc12" low group

Returns: class label. Input: "CC1(C)C(/C=C/c2cc3ccc(O)cc3oc2=O)=[N+](CCCS(=O)(=O)[O-])c2ccccc21" middle group

Returns: class label. Input: "CC1=CC2=Nc3nc(C)[n+](C)cc3CN2C=C1" high group

Returns: class label. Input: "CCOC(=O)c1cc(C(=O)OCC)c2cccc(O)c2n1" middle group

Returns: class label. Input: "COc1ccc(-c2nc3ccccc3nc2/C=C/N2CCCC2)s1" middle group

Returns: class label. Input: "COc1ccc(/C=C2\OC(=O)c3ccccc32)cc1" middle group

Returns: class label. Input: "C#CCN1C(=O)/C(=C/c2cc(OC(C)C)ccc2OC(C)C)N=C1C" low group

Returns: class label. Input: "CCN(CC)c1ccc2cc(/C=C(\C#N)c3nc4ccccc4o3)c(=O)oc2c1" low group

Returns: class label. Input: "Cc1ccc([C@@H]2C[C@](O)(c3ccccn3)C[C@](O)(c3ccccn3)[C@H]2C(=O)c2ccc(N(c3ccccc3)c3ccccc3)cc2)cc1" low group

Returns: class label. Input: "CC1=N/C(=C\c2ccncc2)C(=O)N1C" middle group

Returns: class label. Input: "c1ccc(-c2c3ccccc3c(-c3ncccn3)c3ccccc23)cc1" middle group

Returns: class label. Input: "COc1cccc(OC)c1-c1c2ccc(=[N+]3CCNCC3)cc-2oc2cc(N3CCNCC3)ccc12" low group

Returns: class label. Input: "C[N+]1=C(/C=C/C2=C3Oc4c(cc5c6c4CCCN6CCC5)C(c4ccccc4C(=O)O)=C3CCC2)C(C)(C)c2ccccc21" high group

Returns: class label. Input: "Cc1cc2cc3cc(C)c(C)cc3cc2cn1" high group

Returns: class label. Input: "CC(C)Nc1cc2c(cc1F)c(=O)c1cc(F)c(NC(C)C)cc1n2C(C)C" high group

----------
Assay: photoluminescence quantum yield (fraction); solvent given as SMILES
Conditions: in ClCCl
Lab note - cut at 0.2 for photoluminescence quantum yield: MET if strictly below, NOT MET if not.

Lab log: compare recorded photoluminescence quantum yield with 0.2; is it strictly lower for "Cn1cc(-c2nc3ccccc3nc2/C=C/N2CCCC2)c2ccccc21" ? NOT MET

Lab log: compare recorded photoluminescence quantum yield with 0.2; is it strictly lower for "CN(C)c1ccc(C2=Nc3scc[n+]3[B-](F)(F)O2)cc1" ? NOT MET

Lab log: compare recorded photoluminescence quantum yield with 0.2; is it strictly lower for "CC(C)(C)c1ccc2c(c1)c1cc(C(C)(C)C)ccc1n2-c1ccc(N(c2ccc(-c3ccc(-c4ccc(-c5ccc(-c6ccc(N(c7ccc(-n8c9ccc(C(C)(C)C)cc9c9cc(C(C)(C)C)ccc98)cc7)c7ccc(-n8c9ccc(C(C)(C)C)cc9c9cc(C(C)(C)C)ccc98)cc7)cc6)s5)c5nsnc45)s3)cc2)c2ccc(-n3c4ccc(C(C)(C)C)cc4c4cc(C(C)(C)C)ccc43)cc2)cc1" ? MET

Lab log: compare recorded photoluminescence quantum yield with 0.2; is it strictly lower for "C=CCNc1ccc2c(ccc3oc4cc(=[N+](C)C)ccc-4nc32)c1" ? NOT MET

Lab log: compare recorded photoluminescence quantum yield with 0.2; is it strictly lower for "Cc1cc(C)n2c1C=C1c3ccccc3C(c3c[nH]c4ccccc34)=[N+]1[B-]2(F)F" ? NOT MET

Lab log: compare recorded photoluminescence quantum yield with 0.2; is it strictly lower for "CCCCN(CCCC)c1ccc(C#Cc2cc(C#Cc3c(F)c(F)c(F)c(F)c3F)c(C#Cc3c(F)c(F)c(F)c(F)c3F)cc2C#Cc2ccc(N(CCCC)CCCC)cc2)cc1" ? MET

Lab log: compare recorded photoluminescence quantum yield with 0.2; is it strictly lower for "CN(C)c1ccc(/C=C/C=C/c2nc3ccccc3s2)cc1" ? MET

Lab log: compare recorded photoluminescence quantum yield with 0.2; is it strictly lower for "CC(C)[Si](C#Cc1c2cc3ccccc3cc2c(C#C[Si](C)(C)C)c2cc3ccccc3cc12)(C(C)C)C(C)C" ? MET

Lab log: compare recorded photoluminescence quantum yield with 0.2; is it strictly lower for CCC1=C(C)C2=Cc3c4ccccc4c4n3[B-](c3ccccc3)(Oc3ccccc3-4)[N+]2=C1C (centres undefined) ? NOT MET
